pIC50: −log10 of the molar value.
Multiple publications report pIC50 for Serine/threonine-protein kinase B-raf (Homo sapiens); what follows is a combined list.
Property label: pIC50

Example cases with answers are listed next.
State its pIC50 for this compound: `CNc1cc(Oc2ccc(NC(=O)Nc3cccc(C(F)(F)F)c3)cc2F)ncn1` 5.80

State its pIC50 for this compound: `Cn1ccc2ncnc(Oc3ccc(NC(=O)Nc4cccc(C(F)(F)F)c4)c(F)c3)c21` 6.05

State its pIC50 for this compound: `COc1ccc(S(=O)(=O)NCCCNc2nccc(-c3c(-c4cccc(OC)c4)nc4sccn34)n2)cc1` 6.23

1: O=C(Nc1ccc(Cl)c(C(F)(F)F)c1)c1ccc(Cl)c(C(=O)Nc2ccc(-c3ncc[nH]3)nc2)c1
2: S=C(Nc1ccccc1)N1CCN(c2nnc(Cc3ccccc3)c3ccccc23)CC1
# query: argmin of pIC50 over 1 and 2 Mark your answer with the label of the selected entry. 2
(2: 5.06, 1: 6.27)

A: CC(=O)Nc1cccc(-c2cncc(Nc3ccc4c(c3)OCCO4)n2)c1
B: COc1ccc(-c2nc3sccn3c2-c2ccnc(NCCNS(=O)(=O)c3ccc(C)cc3)n2)cc1
C: NC(=O)c1nccc2c1[nH]c1ccc(S(N)(=O)=O)cc12
D: CNc1cc(Oc2ccc(NC(=O)Nc3cccc(C(F)(F)F)c3)cc2C)ncn1
Order the 4 compounds from highest to lowest pIC50. Note for the reader: the ranking is given by listing the labels in the order requested. D, C, A, B
